meta.source: ChEMBL document CHEMBL1201862

# target or system: UniProt:P34707
# Sequence (P34707 whole entry): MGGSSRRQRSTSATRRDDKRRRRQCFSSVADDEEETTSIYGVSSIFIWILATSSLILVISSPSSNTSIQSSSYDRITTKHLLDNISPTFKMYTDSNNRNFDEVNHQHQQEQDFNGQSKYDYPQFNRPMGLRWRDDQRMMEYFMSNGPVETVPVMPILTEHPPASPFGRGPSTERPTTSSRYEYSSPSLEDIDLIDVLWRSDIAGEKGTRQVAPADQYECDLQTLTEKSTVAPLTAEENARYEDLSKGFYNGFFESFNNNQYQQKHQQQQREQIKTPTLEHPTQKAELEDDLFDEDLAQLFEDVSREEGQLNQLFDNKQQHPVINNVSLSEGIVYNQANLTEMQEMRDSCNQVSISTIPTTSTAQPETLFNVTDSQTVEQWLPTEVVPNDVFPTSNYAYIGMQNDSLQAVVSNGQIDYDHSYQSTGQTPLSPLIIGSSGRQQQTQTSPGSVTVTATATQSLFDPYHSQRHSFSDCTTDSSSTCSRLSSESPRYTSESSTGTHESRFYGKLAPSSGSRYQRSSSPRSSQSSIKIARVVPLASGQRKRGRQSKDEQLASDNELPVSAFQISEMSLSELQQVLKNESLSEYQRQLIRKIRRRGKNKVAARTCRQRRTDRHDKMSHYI
# Assay type: functional
Active and inactive are the calls of the source.
Pick one and only one: true (1) (active), false (0) (inactive)

Lab log entry: COC(=O)C1=C(CN2CCSCC2)NC(=O)NC1c1cc(C)ccc1C (centres undefined) — outcome as called in the assay?
false (0)

Entry CCOC(=O)C(Cc1cc(C(C)=O)ccc1OCC)C(=O)OCC please
false (0)

Follow-up entry: Clc1ccc(-c2nnc(-c3ccccc3Cl)o2)cc1
false (0)

// query: Cn1c(-c2ccc(CN3CCCCC3)o2)nc2ccccc21
false (0)

Please give the result for Cc1cc(C)c2ccc3c(C)c(C)[nH]c3c2n1 too.
true (1)

Another: CCOC(=O)CN(C(=O)CNC(=O)c1cccs1)C(C(=O)NC1CCCCC1)c1cccs1 (centres undefined)
false (0)

Next molecule: CCOc1ccc(-c2nnc(-c3ccco3)o2)cc1
true (1)

Same lookup for Clc1ccc(-c2cc(CSc3cccc(Cl)c3)on2)cc1 , please.
false (0)

How about O=C(NCC1CC1)c1ccc(-c2cn[nH]c2)c2ccoc12 ?
false (0)

Request: Cc1ccc2c(c1)c(C)c(C)n2CC(O)Cn1nnc2ccccc21 (centres undefined)
false (0)

Request: COc1ccc(N(CC(=O)NC2CCCCC2)C(=O)CNC(=O)c2cccs2)cc1
false (0)

Repeat with CC(C)COc1ccc(-c2nnc(-c3ccco3)o2)cc1
false (0)

Also check Cc1cccc(-n2nc3c(c2NC(=O)C2CC2)CS(=O)(=O)C3)c1C
false (0)

Okay, and Clc1ccc(-c2csc(N3CCSCC3)n2)cc1 ?
false (0)

* * *

# target or system: Aminopeptidase N (Plasmodium falciparum FcB1/Columbia, UniProt O96935)
# Sequence (O96935 whole entry): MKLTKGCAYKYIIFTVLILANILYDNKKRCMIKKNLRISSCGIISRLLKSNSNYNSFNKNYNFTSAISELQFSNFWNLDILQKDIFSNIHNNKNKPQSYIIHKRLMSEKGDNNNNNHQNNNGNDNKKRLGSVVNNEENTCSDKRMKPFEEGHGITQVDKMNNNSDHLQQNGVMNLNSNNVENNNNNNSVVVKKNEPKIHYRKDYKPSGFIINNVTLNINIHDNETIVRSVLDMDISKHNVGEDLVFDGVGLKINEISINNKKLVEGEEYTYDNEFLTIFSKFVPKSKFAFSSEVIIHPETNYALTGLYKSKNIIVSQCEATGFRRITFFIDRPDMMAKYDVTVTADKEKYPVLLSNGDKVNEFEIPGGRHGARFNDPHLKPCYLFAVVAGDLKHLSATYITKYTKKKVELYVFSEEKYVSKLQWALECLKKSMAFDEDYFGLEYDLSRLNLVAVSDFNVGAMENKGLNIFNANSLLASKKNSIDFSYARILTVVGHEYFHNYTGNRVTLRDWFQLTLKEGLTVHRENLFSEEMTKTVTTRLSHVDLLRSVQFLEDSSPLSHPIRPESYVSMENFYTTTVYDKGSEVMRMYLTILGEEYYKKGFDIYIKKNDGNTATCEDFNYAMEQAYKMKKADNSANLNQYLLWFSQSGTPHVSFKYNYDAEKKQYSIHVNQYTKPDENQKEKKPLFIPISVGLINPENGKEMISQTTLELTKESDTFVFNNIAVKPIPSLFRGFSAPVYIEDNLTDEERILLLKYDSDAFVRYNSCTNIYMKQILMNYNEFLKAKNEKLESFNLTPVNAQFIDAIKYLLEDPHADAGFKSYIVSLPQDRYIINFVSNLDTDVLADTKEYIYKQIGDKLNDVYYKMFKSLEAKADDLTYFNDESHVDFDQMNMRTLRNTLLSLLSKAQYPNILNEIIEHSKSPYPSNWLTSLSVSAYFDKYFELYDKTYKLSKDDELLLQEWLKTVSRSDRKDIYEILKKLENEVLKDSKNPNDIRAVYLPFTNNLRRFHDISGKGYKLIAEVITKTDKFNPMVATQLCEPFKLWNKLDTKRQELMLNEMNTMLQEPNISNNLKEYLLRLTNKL
# assay name: malaria alanyl aminopeptidase activity blockers – biochemical, fluorogenic H-Leu-NHMec substrate, 1536-well (AID 1445)
# Set-up: species or system Plasmodium falciparum 3D7, 3D7
Calls of active or inactive are those of the source.
reported property: IC50

Test system Aminopeptidase N (Plasmodium falciparum FcB1/Columbia, UniProt O96935); read-out IC50; what value for CCc1cc2c(CN3CCN(C)CC3)cc(=O)oc2cc1O ?
47.7 µM (active)

Now consider O=C(Nc1scc(-c2cccs2)c1C(=O)O)c1cccs1 and answer again.
49.2 µM (active)

Input O=C(COC(=O)c1cc(S(=O)(=O)Nc2ccccc2Cl)ccc1O)Nc1nc2ccccc2s1
44.4 µM (active)

Would you kindly repeat that for Cc1c(CCC(=O)O)c(=O)oc2cc3occ(-c4ccccc4)c3cc12 ?
26.7 µM (active)

Another compound to look at: O=C(CCCO)N/N=C/c1cc(Br)ccc1O
21.7 µM (active)

Would you kindly repeat that for Cc1ccc(C(=O)NC2CCN(CC(=O)Nc3cccc([N+](=O)[O-])c3)CC2)cc1 ?
102 µM (active)
